# test_target: RELB subunit;p52 subunit (Homo sapiens;Homo sapiens, UniProt Q01201;Q00653 120-401;4-332)
# Sequence 1: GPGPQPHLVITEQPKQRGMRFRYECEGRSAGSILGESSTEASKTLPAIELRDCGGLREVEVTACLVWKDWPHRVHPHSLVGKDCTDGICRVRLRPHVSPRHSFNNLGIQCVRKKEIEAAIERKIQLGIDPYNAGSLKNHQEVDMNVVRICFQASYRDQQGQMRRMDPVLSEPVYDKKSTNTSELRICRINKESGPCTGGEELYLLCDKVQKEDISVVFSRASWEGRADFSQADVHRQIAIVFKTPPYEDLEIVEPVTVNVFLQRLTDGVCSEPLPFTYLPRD
# Sequence 2: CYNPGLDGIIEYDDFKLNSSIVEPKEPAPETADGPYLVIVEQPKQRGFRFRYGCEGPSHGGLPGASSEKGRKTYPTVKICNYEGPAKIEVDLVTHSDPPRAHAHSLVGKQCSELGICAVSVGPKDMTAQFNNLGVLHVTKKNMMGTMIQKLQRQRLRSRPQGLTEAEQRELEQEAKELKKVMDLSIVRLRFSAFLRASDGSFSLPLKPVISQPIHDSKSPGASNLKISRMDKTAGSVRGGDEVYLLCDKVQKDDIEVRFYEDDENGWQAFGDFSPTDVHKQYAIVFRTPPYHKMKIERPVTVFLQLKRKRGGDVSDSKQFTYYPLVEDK
# assay: protein binding microarray; high values mean tight binding
# reported_conditions: dsDNA, one strand shown
measured_property: binding signal (z-score)

sequence_input=AAAATCGCCCT unit_abbrev=z-score result_value=-0.442
sequence_input=GGAAGAACCCC unit_abbrev=z-score result_value=0.678
sequence_input=AGGATCACCCT unit_abbrev=z-score result_value=-0.242
sequence_input=GAATAGCTCCC unit_abbrev=z-score result_value=-0.873
sequence_input=AAGGATACCCC unit_abbrev=z-score result_value=0.95
sequence_input=CAGTACGCCCT unit_abbrev=z-score result_value=-0.84
sequence_input=CGGGGAATCCC unit_abbrev=z-score result_value=2.75
sequence_input=AAGAACACCCC unit_abbrev=z-score result_value=0.504
sequence_input=AAGATGCCCCC unit_abbrev=z-score result_value=1.17
sequence_input=AAATATCTCCC unit_abbrev=z-score result_value=0.153
sequence_input=CAAGGATTCCC unit_abbrev=z-score result_value=0.419
sequence_input=GAGAAAGTCCC unit_abbrev=z-score result_value=1.7
sequence_input=CAAGGTTCCCC unit_abbrev=z-score result_value=1.58
sequence_input=AAGTGCCTCCC unit_abbrev=z-score result_value=-0.731
sequence_input=GAAAACCCCCT unit_abbrev=z-score result_value=2.62
sequence_input=AGATGGCTCCC unit_abbrev=z-score result_value=-0.841
sequence_input=AGATGTTTCCC unit_abbrev=z-score result_value=0.51
sequence_input=CGGGTCGTCCT unit_abbrev=z-score result_value=-0.859
sequence_input=CAGGGGATCCC unit_abbrev=z-score result_value=1.18
sequence_input=AAATAACCCCC unit_abbrev=z-score result_value=1.68
sequence_input=CGGGAACCCCC unit_abbrev=z-score result_value=2.34
sequence_input=GGAGGATCCCC unit_abbrev=z-score result_value=0.916
sequence_input=CAATTCCCCCC unit_abbrev=z-score result_value=2.34
sequence_input=GAGGTAGTCCC unit_abbrev=z-score result_value=0.233
sequence_input=CGATAGCCCCC unit_abbrev=z-score result_value=0.523
sequence_input=CAAATTTTCCC unit_abbrev=z-score result_value=1.27

====

# test_target: RELB subunit;p52 subunit (Homo sapiens;Homo sapiens, UniProt Q01201;Q00653 120-401;4-332)
# Sequence 1: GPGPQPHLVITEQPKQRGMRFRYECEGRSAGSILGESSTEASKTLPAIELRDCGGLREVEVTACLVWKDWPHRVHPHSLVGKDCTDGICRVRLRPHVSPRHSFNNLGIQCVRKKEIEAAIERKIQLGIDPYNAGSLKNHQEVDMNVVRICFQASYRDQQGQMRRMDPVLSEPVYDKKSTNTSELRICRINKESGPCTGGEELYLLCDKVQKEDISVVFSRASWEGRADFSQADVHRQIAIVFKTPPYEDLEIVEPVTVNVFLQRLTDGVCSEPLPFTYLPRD
# Sequence 2: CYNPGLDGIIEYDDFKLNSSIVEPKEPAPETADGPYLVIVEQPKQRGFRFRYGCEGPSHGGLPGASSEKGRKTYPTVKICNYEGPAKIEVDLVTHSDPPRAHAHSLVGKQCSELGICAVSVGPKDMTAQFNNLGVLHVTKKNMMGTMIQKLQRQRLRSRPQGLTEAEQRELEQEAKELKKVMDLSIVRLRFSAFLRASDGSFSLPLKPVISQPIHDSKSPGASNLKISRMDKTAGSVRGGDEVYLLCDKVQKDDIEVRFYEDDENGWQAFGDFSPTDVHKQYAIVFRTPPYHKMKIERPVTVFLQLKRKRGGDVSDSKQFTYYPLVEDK
# assay: protein binding microarray; high values mean tight binding
# reported_conditions: dsDNA, one strand shown
Quick reference for binding signal among some sequences
measured_property: binding signal (z-score)

sequence_input=CAGATACTCCC measured_property="binding signal" result_value=-0.637
sequence_input=CAGGTTTCCCT measured_property="binding signal" result_value=1.76
sequence_input=AAGTAAGTCCC measured_property="binding signal" result_value=0.647
sequence_input=GAAGAGTTCCC measured_property="binding signal" result_value=-0.0744
sequence_input=AGGTACATCCT measured_property="binding signal" result_value=-0.293
sequence_input=GAAGTGCTCCT measured_property="binding signal" result_value=-1.22
sequence_input=AGGGTGGTCCC measured_property="binding signal" result_value=0.266
sequence_input=CAGGATATCCC measured_property="binding signal" result_value=-0.211
sequence_input=AGAGTGTCCCT measured_property="binding signal" result_value=1.25
sequence_input=GGATGTCCCCC measured_property="binding signal" result_value=1.47
sequence_input=AGAGAGATCCC measured_property="binding signal" result_value=-0.569
sequence_input=AGATGGTCCCC measured_property="binding signal" result_value=0.355
sequence_input=CGGGACCCCCT measured_property="binding signal" result_value=1.36
sequence_input=GAAAGTTCCCT measured_property="binding signal" result_value=0.987
sequence_input=AAGAAATTCCC measured_property="binding signal" result_value=1.39
sequence_input=AAGGGGGCCCC measured_property="binding signal" result_value=1.04
sequence_input=GGGTGAATCCT measured_property="binding signal" result_value=-0.135
sequence_input=GGGTTACTCCC measured_property="binding signal" result_value=0.378
sequence_input=AAATACACCCC measured_property="binding signal" result_value=0.566
sequence_input=GGATTCCCCCT measured_property="binding signal" result_value=2.57
sequence_input=GGAAACCTCCT measured_property="binding signal" result_value=-0.75
sequence_input=GAGGGATTCCT measured_property="binding signal" result_value=0.491
sequence_input=GAGGTTCTCCC measured_property="binding signal" result_value=0.107
sequence_input=AAGATCGTCCC measured_property="binding signal" result_value=0.078
sequence_input=GGGGAATTCCC measured_property="binding signal" result_value=3.85
sequence_input=CGAGGAATCCT measured_property="binding signal" result_value=-0.975
sequence_input=GAAAGGTTCCC measured_property="binding signal" result_value=-0.316
sequence_input=GAGATGATCCT measured_property="binding signal" result_value=-1.16
sequence_input=CAGGTTACCCC measured_property="binding signal" result_value=0.629
sequence_input=GAAGGAACCCT measured_property="binding signal" result_value=-0.793
sequence_input=AGAGGTGTCCT measured_property="binding signal" result_value=-0.664
sequence_input=GGGAAAGCCCC measured_property="binding signal" result_value=2.95
sequence_input=GAGGGCCTCCT measured_property="binding signal" result_value=-0.69
sequence_input=AAATGAGTCCT measured_property="binding signal" result_value=-0.596
sequence_input=AAAAAGGTCCC measured_property="binding signal" result_value=0.428
sequence_input=GGGTACCTCCC measured_property="binding signal" result_value=0.437
sequence_input=GAGTGGATCCT measured_property="binding signal" result_value=-0.919
sequence_input=AAGGACTCCCC measured_property="binding signal" result_value=0.442
sequence_input=GGAAGCACCCT measured_property="binding signal" result_value=0.214
sequence_input=AAGAAAGCCCT measured_property="binding signal" result_value=-0.728
sequence_input=AAATACGTCCC measured_property="binding signal" result_value=0.334
sequence_input=AAAGATGTCCC measured_property="binding signal" result_value=0.487
sequence_input=CGAGACGCCCC measured_property="binding signal" result_value=0.231
sequence_input=AAAATACCCCT measured_property="binding signal" result_value=2.25
sequence_input=GAAAGCTCCCC measured_property="binding signal" result_value=0.294
sequence_input=AAATTTCCCCC measured_property="binding signal" result_value=2.69
sequence_input=GGAGTAATCCC measured_property="binding signal" result_value=-0.368
sequence_input=AAGTGGGTCCC measured_property="binding signal" result_value=-0.124
sequence_input=GGATAAATCCC measured_property="binding signal" result_value=0.482
sequence_input=AGAGATTTCCT measured_property="binding signal" result_value=-0.49
sequence_input=AAATGGACCCC measured_property="binding signal" result_value=-0.0987
sequence_input=GAGTGTACCCC measured_property="binding signal" result_value=0.337
sequence_input=AGAGACACCCC measured_property="binding signal" result_value=0.00668
sequence_input=AAATTGGCCCC measured_property="binding signal" result_value=0.258
sequence_input=CAGGTTGTCCT measured_property="binding signal" result_value=-0.805
sequence_input=GAGGGTGTCCC measured_property="binding signal" result_value=0.399
sequence_input=GGAAACTCCCC measured_property="binding signal" result_value=2.1
sequence_input=AAGTGAACCCT measured_property="binding signal" result_value=-0.758
sequence_input=CGAGTTGCCCC measured_property="binding signal" result_value=0.407
sequence_input=CAAAGTCCCCT measured_property="binding signal" result_value=1.96
sequence_input=GGAATGATCCC measured_property="binding signal" result_value=-0.764
sequence_input=CGGTATGTCCT measured_property="binding signal" result_value=-0.675
sequence_input=GAAGATTTCCT measured_property="binding signal" result_value=-0.77
sequence_input=GGAGGTATCCC measured_property="binding signal" result_value=-0.395
sequence_input=CGAATCGCCCT measured_property="binding signal" result_value=-0.785
sequence_input=GGAAAGATCCT measured_property="binding signal" result_value=-0.789
sequence_input=AAAATTTTCCT measured_property="binding signal" result_value=-0.176
sequence_input=GAAAAAACCCC measured_property="binding signal" result_value=2.12
sequence_input=CGGGGCACCCC measured_property="binding signal" result_value=1.1
sequence_input=AAGATCTCCCT measured_property="binding signal" result_value=1.02
sequence_input=GAATATCCCCC measured_property="binding signal" result_value=1.9
sequence_input=GGATATGCCCT measured_property="binding signal" result_value=-0.689
sequence_input=CAATTACCCCT measured_property="binding signal" result_value=1.38
sequence_input=GGGTAGTTCCT measured_property="binding signal" result_value=0.0547
sequence_input=CGGGTATTCCT measured_property="binding signal" result_value=0.712

From: paper PMC3218832
